Provenance of the data: PubChem BioAssay (NCI)

System: NCI-H460 lung
Experiment: NCI tumour cell line growth inhibition, 48 h
Where a SMILES comes first, the peptide text is derived from it. [ ]: non-standard residue; d: D form. The star is where a group is joined. ξ: configuration not given here. ξD = NC(CC(=O)O)C(=O)O; Boc = CC(C)(C)OC(=O)*; Aib = CC(C)(N)C(=O)O; OtBu = CC(C)(C)O*
quantity measured: TGI

Some solved entries appear below for comparison.
{"compound": "COC(=O)C(C)(C)NC(=O)C(C)(C)NC(=O)C(CC(=O)OC(C)(C)C)NC(=O)OC(C)(C)C (centres undefined) (Boc-[ξD](OtBu)-[Aib]-[Aib]-OMe)", "TGI": "> 100 µM"}
{"compound": "NC(=O)c1c(Br)n(C2OC(CO)C(O)C2O)c2ncnc(N)c12 (centres undefined)", "TGI": "12.5 µM"}
{"compound": "CC(C)CC(NC(=O)C(Cc1ccccc1)NC(=O)[C@H]1CC[C@H](NC(=O)C(Cc2ccc(OC(C)(C)C)cc2)NC(=O)OC(C)(C)C)C1)C(N)=O (some centres undefined)", "TGI": "39.7 µM"}
{"compound": "COc1cc2c(cc1O)CC[C@@H]1[C@@H]2CC[C@]2(C)[C@@H](OCCCN(C)C)CC[C@@H]12", "TGI": "0.55 µM"}
{"compound": "CC(C)OP(=O)(OC(C)C)c1ncc(-c2ccc(C(F)(F)F)cc2)c(NC2CCCCCC2)n1", "TGI": "> 10 µM"}
{"compound": "C[C@]12CC[C@H]3[C@@H](CCC4=C[C@@H](N5CCCC5)CC[C@@]43C)[C@@H]1C/C(=C\\c1ccncc1)[C@@H]2O", "TGI": "26.4 µM"}
{"compound": "Cc1n[nH]c(=S)n1/N=C/c1ccc(-c2ccc(Cl)cc2)o1", "TGI": "> 100 µM"}
{"compound": "O=C(NC1C(O)C(O)C(CO)OC1n1cc(F)c(=O)[nH]c1=O)OCc1ccccc1 (centres undefined)", "TGI": "> 100 µM"}

Query compound follows.
[Q] # returns recorded TGI (system: NCI-H460 lung) for Cc1ccc(C2C3Cc4ccccc4C3=NN2c2ccc(S(=O)(=O)NC(=O)NC3CCCCC3)cc2)cc1 (centres undefined)
[A] > 100 µM
